molecular target: HCV polymerase (Hepatitis C virus genotype 1b, UniProt Q9WMX2); construct: (His)6 (C); experiment: biochemical; conditions: polymerase assay of Biological Example 1; read-out: NS5B polymerase IC50
Rule: IC50 below 0.01 µM gives MET, anything at or above gives NOT MET.

1) CNC(=O)c1c(-c2ccc(F)cc2)oc2nc(N(C)S(C)(=O)=O)c(C(C)C)cc12 [Example 6.2] = NOT MET

Problem: Please state whether IC50 is below 0.01 µM for CCc1cc2c(C(=O)NC)c(-c3ccc(F)cc3)oc2nc1N(CCOc1ccccc1OC)S(C)(=O)=O [Example 21.91]
Result: NOT MET

Problem: Please indicate whether the reported IC50 of CNC(=O)c1c(-c2ccc(C)cc2)oc2nc(N(CCCC(C)C(=O)O)S(C)(=O)=O)c(C3CC3)cc12 (centres unmarked) [Example 29.9994] is strictly below 0.01 µM.
Result: MET

Problem: Determine if CCc1ccc(-c2oc3nc(N(CCCCCO)S(C)(=O)=O)c(I)cc3c2C(=O)NC)cc1 [Example 23.9993] shows IC50 strictly lower than 0.01 µM.
Result: NOT MET

Problem: Answer whether the compound CCc1cc2c(C(=O)NC)c(-c3ccc(F)cc3)oc2nc1N(CCN(C)S(=O)(=O)c1ccccc1)S(C)(=O)=O [Example 22.995] has IC50 strictly less than 0.01 µM
Result: NOT MET

Problem: Hello, I'm reviewing records and need to know if IC50 of CNC(=O)c1c(-c2ccc(C)cc2)oc2nc(N(CCCC(O)C(C)(C)C(=O)O)S(C)(=O)=O)c(C3CC3)cc12 (centres unmarked) [Example 50] is below 0.01 µM. Could you check?
Result: MET

* * *

IC50 by entry:
target: HCV polymerase (Hepatitis C virus genotype 1b, UniProt Q9WMX2); construct: (His)6 (C); experiment: biochemical; conditions: polymerase assay of Biological Example 1; read-out: NS5B polymerase IC50
Reply numerically in nM, unit not repeated.

1) CNC(=O)c1c(-c2ccc(C)cc2)oc2nc(N(CCCC3(C(=O)O)CCNCC3)S(C)(=O)=O)c(C3CC3)cc12 = 129
2) CNC(=O)c1c(-c2ccc(C)cc2)oc2nc(N(CCCC(C#N)CC(=O)O)S(C)(=O)=O)c(C3CC3)cc12 (stereo not shown) = 3
3) CCc1cc2c(C(=O)NC)c(-c3ccc(F)cc3)oc2nc1N(CCCS(=O)(=O)C(F)(F)F)S(C)(=O)=O = 189

Here is the next item to consider.
Problem: Which IC50 is reported for this compound? CCc1cc2c(C(=O)NC)c(-c3ccc(F)cc3)oc2nc1N(CCOc1ccccc1C#N)S(C)(=O)=O
Result: 119

* * *

target: HCV polymerase (Hepatitis C virus genotype 1b, UniProt Q9WMX2); construct: (His)6 (C); experiment: biochemical; conditions: polymerase assay of Biological Example 1; read-out: NS5B polymerase IC50
A collection of compounds and their measured IC50
All answers are understood in nM, so give the number only.

1) CNC(=O)c1c(-c2ccc(C)cc2)oc2nc(N(C)S(C)(=O)=O)c(CC(O)CO)cc12 (stereo not shown) [Example 9.1] = 117
2) CNC(=O)c1c(-c2ccc(C)cc2)oc2nc(N(CCCCC(C(=O)O)S(C)(=O)=O)S(C)(=O)=O)c(C3CC3)cc12 (stereo not shown) [Example 46] = 3
3) CCc1cc2c(C(=O)NC)c(-c3ccc(F)cc3)oc2nc1N(CCCOc1ccccc1OC)S(C)(=O)=O [Example 21.92] = 352

Let us examine a further case.
Problem: Endpoint output: IC50 of CNC(=O)c1c(-c2ccc(Oc3ccccc3)cc2)oc2nc(N(CCCCC(=O)O)S(C)(=O)=O)c(C3CC3)cc12 [Example 27] . Value?
Result: 1

* * *

Reported IC50 values for the following molecules.
Biological target: HCV polymerase (Hepatitis C virus genotype 1b)
Construct: (His)6 (C)
Experiment: biochemical
Conditions: polymerase assay of Biological Example 1; read-out: NS5B polymerase IC50
Excerpt: A number of assays have been published to assess these activities. A general method that assesses the gross increase of HCV virus in culture was disclosed in U.S. Pat. No. 5,738,985 to Miles et al. In vitro assays have been reported in Ferrari et al. Jnl. of Vir., 73:1649-1654, 1999; Ishii et al., Hepatology, 29:1227-1235, 1999; Lohmann et al., Jnl of Bio. Chem., 274:10807-10815, 1999; and Yamashita et al., Jnl. of Bio. Chem., 273:15479-15486, 1998. WO 97/12033, filed on Sep. […]
Number in nM, nothing else.

Completed entries (count: 5):
1. CNC(=O)c1c(-c2ccc(C)cc2)oc2nc(N(CCCS(C)(=O)=O)S(C)(=O)=O)c(C3CC3)cc12 = 1
2. CNC(=O)c1c(-c2ccc(C)cc2)oc2nc(N(CCCC3CCCS3(=O)=O)S(C)(=O)=O)c(I)cc12 (stereo not drawn) = 5
3. CNC(=O)c1c(-c2ccc(Cl)cc2)oc2nc(N(C)S(C)(=O)=O)c(C3CC3)cc12 = 24
4. CNC(=O)c1c(-c2ccc(C)cc2)oc2nc(N(CCC[C@@H]3CCCS3(=O)=O)S(C)(=O)=O)c(C3CC3)cc12 = 5
5. CNC(=O)c1c(-c2ccc(C)cc2)oc2nc(N(C)S(C)(=O)=O)c(I)cc12 = 16

Problem: Which IC50 value is on record for CCc1cc2c(C(=O)NC)c(-c3ccc(F)cc3)oc2nc1N(Cc1cccc(C#N)c1)S(C)(=O)=O ?
Result: 4540

Problem: Param item = CNC(=O)c1c(-c2ccc(Oc3ccccc3)cc2)oc2nc(N(CCCC(C)(C)C(=O)O)S(C)(=O)=O)c(C3CC3)cc12 ; retrieve measured IC50.
Result: 1

Problem: Entry CCc1cc2c(C(=O)NC)c(-c3ccc(F)cc3)oc2nc1N(CCOc1ccc2cccnc2c1)S(C)(=O)=O has what IC50?
Result: 45

Problem: Param item = CNC(=O)c1c(-c2ccc(F)cc2)oc2nc(N(C)S(C)(=O)=O)c(CCCC(O)CO)cc12 (stereo not drawn) ; retrieve measured IC50.
Result: 223

* * *

target: HCV polymerase (Hepatitis C virus genotype 1b); construct: (His)6 (C); assay: biochemical; conditions: polymerase assay of Biological Example 1; read-out: NS5B polymerase IC50
pIC50: −log10 of the molar value.
Would you mind labelling by pIC50? At or over 8 is Condition met, under is Condition not met.

Example entries begin here.
1. CCNC(=O)c1c(-c2ccc(F)cc2)oc2nc(N(C)S(C)(=O)=O)c(C3CC3)cc12 = Condition not met
2. CNC(=O)c1c(-c2ccc(C)cc2)oc2nc(N(CCCNS(=O)(=O)C(F)(F)F)S(C)(=O)=O)c(C3CC3)cc12 = Condition met
3. CCOC(=O)CCCCN(c1nc2oc(-c3ccc(Cl)cc3)c(C(=O)NC)c2cc1C1CC1)S(C)(=O)=O = Condition met
4. CCc1cc2c(C(=O)NC)c(-c3ccc(F)cc3)oc2nc1N(CCN1CCSCC1)S(C)(=O)=O = Condition not met
5. CNC(=O)c1c(-c2ccc(F)cc2)oc2nc3c(cc12)C(C)C(O)CCN3S(C)(=O)=O (stereo not drawn) = Condition not met

Problem: Reported pIC50 at or above 8? CNC(=O)c1c(-c2ccccc2)oc2nc(N(C)S(C)(=O)=O)c(C3CC3)cc12
Result: Condition not met

Problem: Could you please find out whether CNC(=O)c1c(-c2ccc(C)cc2)oc2nc(N(CCC[C@H](C)C(=O)N[C@@H](CO)Cc3ccccc3)S(C)(=O)=O)c(C3CC3)cc12 has pIC50 that meets 8 or exceeds it?
Result: Condition not met

Problem: Could you verify whether the entry CNC(=O)c1c(-c2ccc(F)cc2)oc2nc(N(C)S(C)(=O)=O)c(I)cc12 shows pIC50 of no less than 8?
Result: Condition not met

Problem: Record C=CCN(c1nc2oc(-c3ccc(C)cc3)c(C(=O)NC)c2cc1C1CC1)S(C)(=O)=O ; criterion: pIC50 no lower than 8. Met?
Result: Condition met

Problem: Form field: pIC50 at least 8? Entry: CNC(=O)c1c(-c2ccc(C)cc2)oc2nc(N(CCCC(=O)O)S(C)(=O)=O)c(C3CC3)cc12
Result: Condition met

Problem: Could you tell me if the measured pIC50 of CNC(=O)c1c(-c2ccc(C)cc2C)oc2nc(N(CCCCC(=O)O)S(C)(=O)=O)c(C3CC3)cc12 reaches 8 or more?
Result: Condition not met

Problem: Determine whether measured pIC50 meets or exceeds 8 for CCc1cc2c(C(=O)NC)c(-c3ccc(F)cc3)oc2nc1N(CCCCC(C)O)S(C)(=O)=O (stereo not drawn)
Result: Condition not met

// provenance: patent US20120015907A1
